B1: FBF1 (parent)
chain: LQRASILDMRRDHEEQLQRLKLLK

variants of: B1; assay: protein stability index of a GFP-peptide fusion (GPS, HEK-293T) (PSI 1-6); higher = more stable; settings: c terminus: a fixed tail appended;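 further: lentivirally expressed fusions sorted by FACS into six bins by GFP to DsRed ratio, PSI derived from sequencing read proportions per bin multiplied by bin number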
In this scheme, each record receives a class according to its protein stability index; the ranges are bottom range = under 3, center range = from 3 up to 4, top range = 4 and over

sequence-entry | class-name
LQRASILDMRRDHEEQLQRLKLKK [L23K] | top range

Task: Sort into band: LQRASILDMRRDHEEQLQALKLLK [R19A]
Result: center range

Task: And the next one, LQRASILDMRRDHEEQLQRNKLLK [L20N] ?
Result: top range

Task: Another: LQRASILDMRRGHEEQLQRLKLLK [D12G]
Result: center range

Task: Could you do the same for LQRASILDMREDHEEQLQRLKLLK [R11E] , please?
Result: center range

Task: Now the variant LQRASILDMRRDHEEQLQRLHLLK [K21H]
Result: center range

Task: Now this one: LQRASILDMMRDHEEQLQRLKLLK [R10M]
Result: bottom range

Task: Then LQRASILDMRRDHEEQLQRLPLLK [K21P] ?
Result: top range

Task: Let us now turn to LQRASILDMRRDHEEQLQRLKLMK [L23M]
Result: top range
